The values you see were collected from PubChem BioAssay (NCI).

- Tested on: SR leukemia
- run_description: NCI tumour cell line growth inhibition, 48 h
attribute_measured: GI50

Given N#Cc1ccc2[nH]cc(Cc3c[nH]c4ccc(C#N)cc34)c2c1 , respond with its GI50.
7.99 µM

// Input: NC(=O)c1ccc(I)c([N+](=O)[O-])c1 . Output its GI50 only.
32.8 µM

Read off the recorded GI50 for CC(=O)CCc1ccc(Oc2c3ccccc3nc3occc23)cc1
19.7 µM

###

Kindly state GI50 for each of the entries shown.
- Tested on: ACHN renal
- run_description: NCI tumour cell line growth inhibition, 48 h

Supply GI50 value. Item: COc1ccc(OC)c(-c2cc(-c3ccc(Cl)cc3)nn2-c2ccccc2)c1
46.2 µM

Tell us which GI50 value is on record for [Mn+3].[O-][Cl+3]([O-])([O-])O.[O-]c1ccccc1C=NCCN1CC1.[O-]c1ccccc1C=NCCN1CC1
23.5 µM

Fill in reported GI50 for this entry: Cc1cc2[nH]c(=O)c3c4ncccc4cn3c2cc1C
2.44 µM

Look up GI50 of O=C1NN(C(=O)c2ccccc2)C(c2ccc(Cl)c(Cl)c2)=C/C1=C\c1ccccc1[N+](=O)[O-] and report it.
3.09 µM

Report GI50 for COC1=CC(c2ccc[nH]2)=N/C1=C\c1[nH]c(C)c(CC(=O)NCc2ccccc2)c1C
1.75 µM

# return recorded GI50 for input COc1ccc2c(c1)C(=O)/C(=C/c1ccc(O)cc1)O2
4 µM

Give the value of GI50 reported for the following: FC(F)(F)c1cccc(Oc2ccc(Nc3ncnc4ccc(OCCCN5CCOCC5)cc34)cc2Cl)c1
1.62 µM

Entry C[N+]1(CCNP(=S)(NCC[N+]2(C)Cc3c(ccc4c3OCO4)C3C2c2cc4c(cc2C[C@@H]3O)OCO4)NCC[N+]2(C)Cc3c(ccc4c3OCO4)C3C2c2cc4c(cc2C[C@@H]3O)OCO4)Cc2c(ccc3c2OCO3)C2C1c1cc3c(cc1C[C@H]2O)OCO3 (stereo not given in full) needs its GI50 filled in; supply it.
4.16 µM

Return reported GI50. Input compound: N[C@@H](Cc1c[nH]c2ccccc12)C(=O)NC1CCN(Cc2c[nH]c3ccc(Cl)cc23)CC1
13.4 µM

Give GI50 for COc1cc(/C=C2\C(=O)Nc3ccc(Cl)cc32)cc(OC)c1OC
23.5 µM

###

- System: SN12C renal
- run_description: NCI tumour cell line growth inhibition, 48 h
I'd appreciate it if you could supply TGI values for the items below.
Quick note: give the figure in µM, leave out the unit.

With SN12C renal as the test system, provide measured TGI for this compound: COc1c(C)c(C/C=C(\C)CC/C=C(\C)CC/C=C(\C)CC/C=C(\C)CCC=C(C)C)c(OC)c(OC)c1OC
52.7

Name the value of TGI reported for O=C(Nc1ccc(Cl)cc1)c1cc(NCc2cc(O)ccc2O)ccc1O when tested on SN12C renal.
22.6

Give TGI only, for COc1cc(/C=C2\N=C(c3ccccc3)N(c3nc4ccccc4s3)C2=O)cc(OC)c1OC , using SN12C renal data.
82.4

GET TGI | system: SN12C renal | item: Oc1ccc(Br)cc1C=NC1CCCCC1
19.5

Enter TGI (test system SN12C renal) for C#Cc1cccc(Nc2nc(C)nc3cc(NC(=O)CCl)ccc23)c1
3.58

###

- System: HOP-62 NSCLC
- run_description: NCI tumour cell line growth inhibition, 48 h
attribute_measured: TGI

Respond only with TGI recorded for Cc1ccc(NC(=O)C(=O)C2C(=O)NC(=O)NC2=O)c(C)c1
> 100 µM

For the compound COc1ccc(Cc2ccc3[nH]c(=O)cc(C)c3c2)cc1S(=O)(=O)O , give its measured TGI value.
> 100 µM

Return TGI for the following compound: COc1ccc(CC2Cc3ccccc3CC(=O)N2)cc1OC (stereo unspecified)
> 100 µM

Tell us which TGI value is on record for O=c1oc2ccc(F)cc2c(=O)n1-c1ccc(I)cc1F
14.9 µM

Using known records, supply TGI for C/C(=N\NC(=O)c1ccccc1O)c1c(O)cc(C)oc1=O
> 100 µM

Assign TGI to the following record: Cc1cc(-c2nc3ccc(F)cc3s2)ccc1NC(=O)C(N)CCCCN (stereo unspecified)
12.7 µM

Please give measured TGI of the following entry: Brc1ccc2nc(-c3cccs3)nc(N3CCN(c4ccccc4)CC3)c2c1
> 100 µM

Write down TGI measured for item COC(=O)CC(C(C(=O)OCc1ccccc1)C(C)O)N1C(=O)OCC1c1ccccc1 (stereo unspecified)
> 100 µM

Kindly indicate its recorded TGI. Item: CCCCN(C)CC(C(C)=O)C(c1ccccc1)c1c(O)c2ccccc2oc1=O (stereo unspecified)
> 100 µM

Give TGI for the following compound: O=C(O)CN1CCN2CCCCCCCCN(CC1)CCN(CC(=O)O)CC2
> 100 µM

Please supply the value of reported TGI for the item Oc1cccc2cccnc12
> 100 µM

###

- Test system: ACHN renal
- run_description: NCI tumour cell line growth inhibition, 48 h
Consider the following molecules; for each one, report its TGI.

Report TGI, nothing else, for this molecule: O=CC1=CCCN(CCc2c[nH]c3ccccc23)C1
125 µM

Supply TGI value. Item: C=C1C2CC(OC(C)=O)C3(C)C(c4ccoc4)OC(=O)[C@@H](O)[C@]13OC1C[C@H](OC(C)=O)C(C)(C)[C@H](C(O)C(=O)OC)[C@]12C (some centres undefined)
> 100 µM

Recall and state the measured TGI for COc1cc(/C=C2\C[C@H]3[C@@H]4CC=C5C[C@@H](O)CC[C@]5(C)[C@H]4CC[C@]3(C)[C@H]2O)ccc1OCCN1CCCCC1 .
1.37 µM

Please give the documented TGI of O=C1NN(C(=O)c2ccccc2)C(c2ccc(Cl)c(Cl)c2)=C/C1=C\c1ccccc1[N+](=O)[O-]
> 6.75 µM

###

Would you mind telling me the reported TGI of each entry?
- System: EKVX NSCLC
- run_description: NCI tumour cell line growth inhibition, 48 h
Reply with just the number (in µM).

Report its TGI with EKVX NSCLC as the test system: C#Cc1cccc(Nc2nc(C)nc3cc(NC(=O)CCl)ccc23)c1
7.62

Look up and report TGI, with EKVX NSCLC as system, for N=C1c2ccccc2C(=O)c2c(NCCNCCO)ccc(O)c21
46.9

###

- Tested on: SN12C renal
- run_description: NCI tumour cell line growth inhibition, 48 h
attribute_measured: TGI

Respond only with TGI recorded for O=C1NCN(c2ccccc2)C12CCN(CCCN1CCN(CCOC(c3ccccc3)c3ccccc3)CC1)CC2
7.14 µM

Identify the reported TGI for the following entry. CCOC(=O)NC(=O)c1cn(C2CCCCC2)c(=O)n(C)c1=O
> 100 µM

Give the reported TGI for this compound. CC(=O)OCCCCn1nncc1Cn1ccc(=O)n(Cc2cnnn2CCCCOC(C)=O)c1=O
> 100 µM

Report TGI for CCCCCCCCCCCCCCCCCC1=NC(C)(C)CN1C(C)(C)CO
3.25 µM

Provide only the value of recorded TGI for Cc1ccc(NC(=O)CCc2nnc3s/c(=C\C=C\c4ccccc4)c(=O)n23)cc1
> 100 µM

Give the reported value of TGI for this record: O=C(O)C(Cc1ccccc1)N=Cc1nc(-c2ccccc2)oc1O (centres undefined)
> 100 µM

# return recorded TGI for entry CC1CN=C(N(C(=O)Nc2ccc(Cl)cc2)c2cccc(Cl)c2)S1 (centres undefined)
83.9 µM

Give a short answer stating reported TGI for Cc1nc(-c2cccnc2)sc1C(=O)CC(=O)C(=O)Nc1cccc(NC(=O)C(=O)CC(=O)c2sc(-c3cccnc3)nc2C)n1 .
> 100 µM

Fill in TGI for record COc1cc(/C=C2\C(=O)Nc3ccc(Cl)cc32)cc(OC)c1OC
> 100 µM

Respond only with TGI recorded for CC1(C)C(CBr)=[N+]([O-])C(C)(C)N1O
9.93 µM

// fetch TGI given entry CC(=O)/C(=C/N1CC(=O)NC1=S)C(=O)Nc1ccccc1C
> 100 µM

Output TGI of Cn1c2ccccc2c2c3c(c4c5ccccc5n(C)c4c21)C(=O)N(Cc1ccccc1)C3=O
> 100 µM

Specify measured TGI for COC(=O)Cc1cccc2c(=O)c(S(=O)(=O)NC(=O)Nc3ccc(Cl)cc3)c(-c3ccccc3)oc12 .
> 100 µM

Output TGI of CC1(C)CC[C@]2(C(=O)NCCNCCN)CC[C@]3(C)C(=CC[C@@H]4[C@@]5(C)CCC(=O)C(C)(C)[C@@H]5CC[C@]43C)[C@@H]2C1
3.13 µM

###

- System: U251 CNS
- run_description: NCI tumour cell line growth inhibition, 48 h
Kindly state TGI for each of the entries shown.

Return the recorded TGI value; entry: C[C@@H](c1ccccc1)N1C[C@@H](c2ccc3c(c2)OCO3)[C@@H]2C(=O)CCC[C@@H]21
> 100 µM

Give TGI for the following compound: O=C1CC=C2C3CC4N(CCC45c4ccccc4N1C25)C/C3=C\CO (stereo unspecified)
> 100 µM

Give the measured TGI for Cc1ccccc1SC(/C=C/NNC1=NC(c2ccccc2)C(c2ccccc2)=NN1)c1ccccc1 (stereo unspecified)
64.7 µM

Determine from records and report TGI for Cc1c(C)c(S(=O)(=O)N(CCCN)OCCCN)c(C)c2c1OC(C)(C)CC2
24.1 µM

Check the records and state TGI for Cc1ccc(F)c2[nH]c(-c3ccccc3)cc(=O)c12
> 100 µM

Give TGI for Nc1ccc2nc3n(c2c1)C(c1c(F)cccc1F)SC3 (stereo unspecified)
> 100 µM

Annotate the compound COc1ccc(N[C@H](CS(=O)c2ccc(C)cc2)C(F)(F)F)cc1 (stereo partly specified) with its measured TGI.
> 100 µM

Return TGI (reported value) for this compound: OCC1CC2C=CCC(C2)C1 (stereo unspecified)
> 100 µM

// Input: C/C(COc1ccc2oc(-c3ccccc3)cc(=O)c2c1)=N\O . Output its TGI only.
37.2 µM

Provide only the value of recorded TGI for O=C(O)c1nn(-c2ccc(Cl)cc2)c2c1C(=O)c1ccccc1C2=O
> 100 µM

For the compound NS(=O)(=O)c1ccc(N=Nc2ccc(O)cc2)cc1 , give its reported TGI.
> 100 µM
